Measured growth, listed per entry.
System: IGROV1 ovarian
run_description: NCI-60 one-dose screen, 48 h (100 = growth as untreated, 0 = no growth, -100 = all killed)
assay_conditions: 10 µM unless noted
About 83,000 compounds went through this panel and 20% of them were active in at least one assay; those are over-represented in the sample as a whole. Calls of active or inactive are those of the source. Rule for the calls: active = growth percent below 10; inactive = the rest.
metric_name: growth

>  <compound>
[2H]C([2H])([2H])Oc1cc(F)ccc1/C=C/C(=O)/C=C(/C=C/c1ccc(F)cc1OC([2H])([2H])[2H])OB(F)F

>  <result>
12% (inactive)

$$$$
>  <compound>
O=C(CCCCCCCCC(=O)N/N=C\c1ccccc1O)N/N=C\c1ccccc1O

>  <result>
29.6% (inactive)

$$$$
>  <compound>
O=C(NNc1ccccc1)C1CCCN1 (stereo not given)

>  <result>
75.1% (inactive)

$$$$
>  <compound>
COc1ccc2c(O)c(/C=C3\N=Nc4nc(C)ccc43)oc2c1CC1CCNCC1

>  <result>
60.8% (inactive)

$$$$
>  <compound>
C=C1C(=O)O[C@@H]2[C@H]3[C@H](COC(C)=O)[C@@H](OC(C)=O)C[C@H]3C(=C)[C@@H](O)C[C@@H]12

>  <result>
101% (inactive)

$$$$

Values were extracted from PubChem BioAssay (NCI).
